# assay_summary: blood kinetics of unchanged form and active metabolite M-II after oral or sublingual administration to human (cross-over, open-label)
# Format: in vivo
# protocol_conditions: serum, oral, dose 8 mg, mean
property_label: Cmax (ng/mL)
One number for each entry, in ng/mL.

## Task Look at this compound and give its reported Cmax. CCC(=O)NCC[C@@H]1CCc2ccc3c(c21)CCO3
## Result 4.76

* * *

# assay_summary: randomized open-label pharmacokinetic study of oral-mucosal tablets versus oral 8 mg tablet
# Assay type: in vivo, human
# protocol_conditions: human serum, single oral-mucosal tablet dose of Compound A 0.5 mg, mean, N=6; measurement substance = label
Assignment: determine reported Cmax for the given compounds.
One number for each entry, in ng/mL.

C[C@H](O)C(=O)NCC[C@@H]1CCc2ccc3c(c21)CCO3 [M-II] = 3.74

Here is another compound to look at.
## Task Look at this compound and give its reported Cmax. CCC(=O)NCC[C@@H]1CCc2ccc3c(c21)CCO3 [compound A]
## Result 5.85
